Kindly state TGI for each of the entries shown.
# Tested on: COLO 205 colon
# test description: NCI tumour cell line growth inhibition, 48 h

Qu. Quick one: TGI for COc1cc([C@@H]2c3cc4c(cc3[C@H](OC3OC5COC(c6ccco6)OC5C(O)C3O)C3COC(=O)[C@@H]32)OCO4)cc(OC)c1OC (stereo partly specified) ?
Ans. > 31.3 µM

Qu. Moving on to the next compound: "COc1cc2c(cc1OS(C)(=O)=O)N=C[C@@H]1CCCN1C2=O"
Ans. > 100 µM

Qu. Next up: "C#CCN(Cc1ccc2nc(-c3ccccc3)c(Cl)nc2c1)c1ccc(F)cc1"
Ans. > 100 µM

Qu. Thanks! And "O=C([CH-]C(=O)c1ccccc1)c1ccccc1.O=C([CH-]C(=O)c1ccccc1)c1ccccc1.O=C([CH-]C(=O)c1ccccc1)c1ccccc1.[Ga+3]" ?
Ans. > 100 µM

Qu. Please answer likewise for CC(=O)OCC1OC(N2C(=O)[C@@H](Oc3ccccc3)[C@H]2/C=C/c2ccccc2)C(OC(C)=O)C(OC(C)=O)C1OC(C)=O (stereo partly specified)
Ans. > 100 µM

Qu. Request: O=C1C2C3CC4C5C3C1C5C1(SCCS1)C42 (stereo unspecified)
Ans. > 100 µM

Qu. Note, next up: "C[C@@H]1CN2[C@H]3[C@@H]1CC[C@]31CCC(=O)O[C@]1(C)[C@H]1CC[C@H]3CCC=C3[C@@H]12"
Ans. > 30 µM

Qu. Now the same for "CCOC(=O)c1nc2ccccc2nc1Oc1cc(OC)cc(OC)c1"
Ans. > 100 µM

Qu. What do we get for "COc1ccc2c(c1)/C(=C/c1c(O)[nH]c(=S)[nH]c1=O)C=N2" ?
Ans. > 100 µM

Qu. Let us now turn to "N/N=c1/nc2n(c3ncccc13)C=CNN2"
Ans. > 100 µM

Qu. Note, next up: "COc1cc(CN=c2nc(N(C)C)ss2)cc(OC)c1OC"
Ans. > 10 µM

====

I'd appreciate it if you could supply TGI values for the items below.
# Test system: COLO 205 colon
# test description: NCI tumour cell line growth inhibition, 48 h

Qu. Name the recorded TGI for "N#Cc1cc2c(cc1C#N)SCCSCCCSCCS2" .
Ans. > 100 µM

Qu. Ok, now CC(C)=CC[C@@H]1CC2(CC=C(C)C)C(=O)C(OC3(C(=O)c4ccccc4)C(=O)C4(CC=C(C)C)C[C@@H](CC=C(C)C)C(C)(C)C(CC=C(C)C)(C4=O)C3=O)(C(=O)c3ccccc3)C(=O)C(CC=C(C)C)(C2=O)C1(C)C (some centres not stated)
Ans. 3.22 µM

Qu. Same again, this time with "C=C1c2nc3ccccc3n2C=C(c2ccc(OC)cc2)N1c1ccc(OCCN2CCCCC2)cc1"
Ans. 36.4 µM

Qu. Record: CN(C)CC1CC/C(=C\c2ccc(Cl)c(Cl)c2)C1=O (configuration not stated)
Ans. > 51.8 µM

Qu. One more molecule: CC(=O)OC(C)(C)C1CC[C@]2(C)/C=C/C(C)C[C@@H](O)/C=C(\C)CC(O)C12 (some centres not stated)
Ans. > 100 µM

Qu. Please do the same for "O=c1[nH]c2ccccc2n1C1CCNCC1" as well.
Ans. > 100 µM

Qu. Try this molecule next: "Cc1cccc(Nc2nc3ccccc3nc2NS(=O)(=O)c2ccc(N)cc2)c1"
Ans. > 100 µM

====

# Tested on: HOP-62 NSCLC
# test description: NCI tumour cell line growth inhibition, 48 h
So I've got a bunch of molecules here, and I need their TGI values.

Qu. Please give the measured TGI for this molecule: "CN(C)CCC(N)(P(=O)([O-])[O-])P(=O)([O-])[O-].N.N.[Pt+2]"
Ans. > 100 µM

Qu. Another: O=C(O)c1ccccc1CN1CCCC(C(=O)O)C1 (stereo unspecified)
Ans. > 100 µM

Qu. Can you handle N#CC1=C(N)Oc2c(sc3c(Br)cccc23)C1c1ccc([N+](=O)[O-])cc1 (stereo unspecified) next?
Ans. 14 µM

Qu. How about "O=C1CSCC(=O)Nc2ccccc2N1" ?
Ans. > 100 µM

Qu. "COc1cccc2c1nc(C(F)F)n2-c1nc(-c2ccc(NS(=O)(=O)CCN(C)C)cc2)nc(N2CCOCC2)n1" , same question.
Ans. 6.56 µM

Qu. Follow-up entry: CSC(=S)CC(O)[C@@H]1CC2c3ccccc3C1c1ccccc12 (stereo partly specified)
Ans. 38.2 µM

Qu. Same question for NC(N)NCCCc1cn2c(n1)C1CCCN1C(=O)C2Cc1ccccc1 (stereo unspecified) please.
Ans. > 100 µM

Qu. Record: "O=c1[nH]c2ccccc2n1C1CCNCC1"
Ans. > 100 µM

Qu. And what about the molecule C=CCN1C(=O)CC2[C@@H]3CCc4cc(O)ccc4C3CC[C@]2(C)C1=O (stereo partly specified) ?
Ans. > 10 µM

Qu. Another molecule: N=c1sc2ccccc2n1CCS (tested in a mixture with another compound)
Ans. 39.8 µM

Qu. Next molecule: CC(C)(C)N(Cc1ccccc1)C(=O)/C=C\S(=O)c1ccccc1 (stereo unspecified)
Ans. 21.2 µM

====

# System: CAKI-1 renal
# test description: NCI tumour cell line growth inhibition, 48 h
Where a SMILES comes first, the peptide text is derived from it. Bridges are numbered along the chain shown (N, C = ends). The star is where a group is joined. Cbz = O=C(OCc1ccccc1)*
measure name: TGI

Qu. Item under review: CN(C)CC1CC/C(=C\c2ccc(Cl)c(Cl)c2)C1=O (stereo not drawn) . Reported TGI?
Ans. 56.1 µM

Qu. Please answer likewise for COC(=O)C(=O)C(C#N)c1nc2ccccc2s1 (stereo not drawn)
Ans. > 100 µM

Qu. Try this compound next: CNC(=O)C1CCCCNC(=O)CCC(NC(=O)OCc2ccccc2)C(=O)N1 (stereo not drawn) (Cbz-Glu-Lys-NHMe; lactam 1-2; configuration not given here)
Ans. > 100 µM

Qu. Then CC[C@@H]1/C=C/C=C/C[C@H](C)[C@@H](O)[C@@H](C)C(=O)[C@H](C)[C@@H](O)[C@H](C)C(=O)[C@H](C)[C@@H](O)[C@H](C)/C=C/C(=O)O[C@H]2[C@@H](C)[C@@H](CC1)O[C@@]1(CC[C@@H](C)[C@@H](CC(C)O)O1)[C@@H]2C (stereo partly drawn) ?
Ans. > 25 µM

Qu. Can you check "Clc1ccc(Cc2nc3ccccc3o2)cc1" next?
Ans. > 100 µM

Qu. One more compound: "COC(=O)N[C@H]1CCc2cc(OC)c(OC)c(OC)c2-c2ccc(SC)c(=O)cc21"
Ans. > 100 µM

Qu. Same read-out for O=C(CC(NC(=O)OCc1ccccc1)C(=O)NC1Cc2ccccc2C1=O)OCc1ccccc1 (stereo not drawn) ?
Ans. > 100 µM

Qu. Now the compound "C=CCc1cccc(C=O)c1O"
Ans. > 100 µM

Qu. Query "Nc1ccc(/C=C/c2ccc3ncccc3c2)cc1" next
Ans. > 100 µM

Qu. Next up: Cc1c(C(Cc2ccccc2N(C)C(=O)/C=C\C(=O)O)c2c[nH]c3ccccc23)c2ccccc2n1C (stereo not drawn)
Ans. 36 µM

Qu. Quick one: N=c1sc2ccccc2n1CCS (tested in a mixture with another compound)
Ans. 45.8 µM

Qu. "O=C(O)/C=C\C(=O)Nc1ccc2c(c1)-c1ccccc1C2" , same question.
Ans. > 100 µM

Qu. Note, next up: COC(=O)NC(=O)NC(Cc1ccccc1)NC(=O)OCc1ccccc1 (stereo not drawn)
Ans. > 100 µM

====

# Test system: SN12C renal
# test description: NCI tumour cell line growth inhibition, 48 h
Give measured TGI for each item. Keep answers brief.
Provide the reading as a plain figure in µM.

Qu. Need TGI of "CCN(Cc1ccc(OC)cc1)c1ccc(CO)c(Cl)c1" , thanks.
Ans. 39.3

Qu. Entry to check: "CC(C)=CCC[C@@H](C)[C@H]1CC[C@@]2(C)[C@@H]3CC[C@H]4C(C)(C)[C@@H](O)CC[C@@]45C[C@@]35CC[C@]12C"
Ans. 41.8

Qu. For "C=CC(=O)NCCC(=O)OCn1cc(F)c(=O)[nH]c1=O" then?
Ans. 15.3

Qu. Continue with "COC(=O)c1cc2ccc(O)c(O)c2cn1"
Ans. 17.3

Qu. Same again, this time with "O=C(N/N=C/c1ccc(Cl)cc1)c1ccc(NC(=O)c2ccccn2)cc1"
Ans. 55.4

====

Can you tell me TGI for the items I'm about to list?
# System: SF-539 CNS
# test description: NCI tumour cell line growth inhibition, 48 h

Qu. Entry under review: "N#Cc1cc2c(cc1C#N)SCCSCCCSCCS2" . Reported TGI?
Ans. 43.2 µM

Qu. Would you kindly repeat that for "O=S(=O)(NCCCNc1cc(-c2cn(-c3ccccc3)nc2-c2cccc(O)c2)ccn1)c1ccc(C(F)(F)F)cc1" ?
Ans. 3.77 µM

Qu. Try this compound too: CC(C#N)(c1ccccc1)N(CCc1ccccc1)C(=O)Oc1ccccc1 (centres undefined)
Ans. > 100 µM

Qu. Next: "Cc1ccc(N)c(S)c1"
Ans. 31.3 µM

Qu. Moving on to "CN(Cc1cnc2nc(N)nc(N)c2n1)c1ccc(C(=O)NCCCS(=O)(=O)O)cc1"
Ans. > 100 µM

Qu. Here is the next compound: "Cc1cccc2cc(/C=C/C(=O)/C=C/c3ccc(Cl)cc3)c(=O)[nH]c12"
Ans. > 100 µM

Qu. Continue with "O=C1c2ccccc2-c2nnc3c(c21)Cc1ccccc1C3"
Ans. > 10 µM

Qu. Next up: "CCCN(CCC)C(=S)Sc1nc(C)nc(N2CCN(c3nc(C)nc(SC(=S)N(CCC)CCC)c3[N+](=O)[O-])CC2)c1[N+](=O)[O-]"
Ans. > 80.6 µM

Qu. And what about the compound "COCN1C(=O)[C@@H]2CCCN2C(=O)c2cc(OC)c(Cc3ccccc3)cc21" ?
Ans. > 100 µM

Qu. Same question for "C/C(CN1C(=O)c2ccccc2C1=O)=N\NS(=O)(=O)c1ccc2ccccc2c1" please.
Ans. > 100 µM

Qu. Please give the result for "CCCc1nnc2sc(COc3ccc(OCc4nn5c(CCC)nnc5s4)c(Cl)c3)nn12" too.
Ans. > 100 µM

Qu. What do you have for "O=C1c2ccccc2C(=O)N1/N=C1/SC(=Nc2ccccc2)C(=Nc2ccccc2)N1c1ccccc1" ?
Ans. > 100 µM

Qu. # iterate: "O=C1C=C(Nc2ccccc2)c2ccccc2C1=O"
Ans. 3.47 µM

Qu. Next compound: "CC(C)(CN1CCCCC1)C(=O)/C=C/c1ccccc1"
Ans. 22.9 µM

Qu. Would you mind doing COCCN(C(=O)c1ccccc1)C1CCC2(SCCS2)c2[nH]c3ccccc3c21 (centres undefined) as well?
Ans. > 100 µM

Qu. Thanks! And "Clc1ccc(/C=C/c2nc(-c3ccccc3)cn3c2nc2ccccc23)cc1Cl" ?
Ans. > 100 µM

Qu. Could you do the same for C[N+]1([O-])C2CCC1CC(OC(=O)C(CO)c1ccccc1)C2 (centres undefined) , please?
Ans. > 100 µM

Qu. Likewise for "COc1cc2cc(NCc3cccc(Cl)c3)nc(C)c2cc1OC" ?
Ans. 7.54 µM

Qu. Request: "C=C=C[P+](c1ccccc1)(c1ccccc1)c1ccccc1"
Ans. 40.2 µM
